- ASSAY_SYSTEM: huTAC3R (NK3R) (Homo sapiens)
- Construct: host or cells: COS-7
- METHOD_DESCRIPTION: CRE-/SRE-Luc receptor transactivation reporter assay in COS-7 cells, human TAC3R
- Assay type: cell-based
- MEASUREMENT_CONTEXT: SRE-Luc reporter (PKC/Ca2+), mean ± SEM, read-out: EC50 huTAC3R (NK3R) SRE
Starred links: 1 amine or outer side, 2 acyl side, 3 side chain; linkers in the order of their positions; H or OH if unused. Non-standard residues stand in square brackets, D forms with d. Residues, ends and D or L forms follow the SMILES beside them. NMeI = CC[C@H](C)[C@H](NC)C(=O)O; pGlu = O=C1CC[C@@H](C(=O)O)N1; Suc = O=C(CCC(=O)[*:2])[*:1]
Listed next: entries and their corresponding pEC50.
Entry type: numeric. Quantity: pEC50, the -log10 of concentration in molar units.

Worked cases, pEC50 given:
{"columns": ["MOLECULE", "OBSERVABLE", "RESULT_NUMBER"],
 "data": [
  ["CC[C@H](C)[C@H](NC(=O)[C@H](Cc1ccccc1)NC(=O)[C@@H](NC(=O)[C@H](CC(=O)O)NC(=O)[C@H](CC(=O)O)NC(=O)[C@H](CCSC)NC(=O)[C@@H]1CCC(=O)N1)[C@@H](C)CC)C(=O)NCC(=O)N[C@@H](CC(C)C)C(=O)N[C@@H](CCSC)C(N)=O [tiNKB] ([pGlu]MDDIFIGLM-NH2)", "pEC50", 10.70],
  ["CSCC[C@H](NC(=O)[C@H](CC(C)C)NC(=O)CNC(=O)[C@@H](NC(=O)[C@H](Cc1ccccc1)NC(=O)[C@H](CO)NC(=O)[C@H](CC(=O)O)NC(=O)[C@H](Cc1ccc(O)cc1)NC(=O)[C@H](CC(=O)O)NC(=O)[C@H](CC(C)C)NC(=O)[C@H](CC(=O)O)NC(=O)[C@H](CC(N)=O)NC(=O)[C@@H](N)Cc1ccc(O)cc1)C(C)C)C(N)=O [tiNKF] (H-YNDLDYDSFVGLM-NH2)", "pEC50", 7.49]
]}

Let us move to another entry and its pEC50.
Tell me pEC50 reported for CC[C@H](C)[C@H](NC(=O)[C@H](CC(=O)O)NC(=O)CCC(=O)O)C(=O)N[C@@H](Cc1ccccc1)C(=O)N(C)[C@H](C(=O)NCC(=O)N[C@@H](CC(C)C)C(=O)N[C@@H](CCSC)C(N)=O)[C@@H](C)CC [tiNKB analog] (Suc-DIF[NMeI]GLM-NH2)
6.68

---

- ASSAY_SYSTEM: huTAC3R (NK3R) (Homo sapiens, UniProt P29371)
- Construct: host or cells: COS-7
- Sequence (P29371 1-465): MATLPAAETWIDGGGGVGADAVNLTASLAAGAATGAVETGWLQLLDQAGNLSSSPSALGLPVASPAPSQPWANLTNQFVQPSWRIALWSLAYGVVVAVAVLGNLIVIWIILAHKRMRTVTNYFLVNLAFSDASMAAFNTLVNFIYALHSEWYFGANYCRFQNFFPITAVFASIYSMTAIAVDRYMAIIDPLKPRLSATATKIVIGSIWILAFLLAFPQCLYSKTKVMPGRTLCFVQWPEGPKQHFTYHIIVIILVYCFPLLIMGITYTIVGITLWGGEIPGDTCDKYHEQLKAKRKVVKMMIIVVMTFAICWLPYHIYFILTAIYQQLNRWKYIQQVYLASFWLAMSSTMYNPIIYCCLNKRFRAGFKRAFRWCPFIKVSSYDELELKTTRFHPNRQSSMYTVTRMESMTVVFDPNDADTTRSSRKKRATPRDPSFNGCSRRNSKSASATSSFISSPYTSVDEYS
- METHOD_DESCRIPTION: CRE-/SRE-Luc receptor transactivation reporter assay in COS-7 cells, human TAC3R
- Format: cell-based
- MEASUREMENT_CONTEXT: CRE-Luc reporter (PKA/cAMP), mean ± SEM, read-out: EC50 huTAC3R (NK3R) CRE
Starred links: 1 amine or outer side, 2 acyl side, 3 side chain; linkers in the order of their positions; H or OH if unused. Non-standard residues stand in square brackets, D forms with d. Residues, ends and D or L forms follow the SMILES beside them. Suc = O=C(CCC(=O)[*:2])[*:1]; NMeV = CN[C@H](C(=O)O)C(C)C
OBSERVABLE: pEC50
Entry type: numeric. Quantity: pEC50, the -log10 of concentration in molar units.

{"columns": ["COMPOUND", "ASSAY_SYSTEM", "RESULT_NUMBER"],
 "data": [
  ["CC[C@H](C)[C@H](NC(=O)[C@H](CC(=O)O)NC(=O)[C@H](CC(N)=O)NC(=O)[C@@H](N)Cc1ccc(O)cc1)C(=O)N[C@@H](CC(=O)O)C(=O)N[C@@H](Cc1ccc(O)cc1)C(=O)N[C@@H](CC(=O)O)C(=O)N[C@@H](CO)C(=O)N[C@@H](Cc1ccccc1)C(=O)N[C@H](C(=O)NCC(=O)N[C@@H](CC(C)C)C(=O)N[C@@H](CCSC)C(N)=O)C(C)C [zfNKF] (H-YNDIDYDSFVGLM-NH2)", "huTAC3R (NK3R) (Homo sapiens, UniProt P29371)", 8.90],
  ["CC[C@H](C)[C@H](NC(=O)[C@H](CC(=O)O)NC(=O)[C@H](Cc1c[nH]cn1)NC(=O)[C@H](CCSC)NC(=O)[C@@H](N)CCC(=O)O)C(=O)N[C@@H](Cc1ccccc1)C(=O)N[C@H](C(=O)NCC(=O)N[C@@H](CC(C)C)C(=O)N[C@@H](CCSC)C(N)=O)C(C)C [zfNKBa] (H-EMHDIFVGLM-NH2)", "huTAC3R (NK3R) (Homo sapiens, UniProt P29371)", 8.77]
]}

Let us move to another entry and its pEC50.
Tell me pEC50 reported for CC[C@H](C)[C@H](NC(=O)[C@H](CC(=O)O)NC(=O)CCC(=O)O)C(=O)N[C@@H](Cc1ccccc1)C(=O)N(C)[C@H](C(=O)NCC(=O)N[C@@H](CC(C)C)C(=O)N[C@@H](CCSC)C(N)=O)C(C)C [zfNKBa analog] (Suc-DIF[NMeV]GLM-NH2)
7.94

---

Listed next: entries and their corresponding EC50.
- ASSAY_SYSTEM: huTAC3R (NK3R) (Homo sapiens)
- Construct: host or cells: COS-7
- METHOD_DESCRIPTION: CRE-/SRE-Luc receptor transactivation reporter assay in COS-7 cells, human TAC3R
- Format: cell-based
- MEASUREMENT_CONTEXT: CRE-Luc reporter (PKA/cAMP), mean ± SEM, read-out: EC50 huTAC3R (NK3R) CRE
Non-standard residues stand in square brackets, D forms with d. Residues, ends and D or L forms follow the SMILES beside them. pGlu = O=C1CC[C@@H](C(=O)O)N1
Provide only the numeric value, understood in nM.

{"columns": ["MOLECULE", "OBSERVABLE", "RESULT_NUMBER"],
 "data": [
  ["CSCC[C@H](NC(=O)[C@H](CC(C)C)NC(=O)CNC(=O)[C@@H](NC(=O)[C@H](Cc1ccccc1)NC(=O)[C@H](CO)NC(=O)[C@H](CC(=O)O)NC(=O)[C@H](Cc1ccc(O)cc1)NC(=O)[C@H](CC(=O)O)NC(=O)[C@H](CC(C)C)NC(=O)[C@H](CC(=O)O)NC(=O)[C@H](CC(N)=O)NC(=O)[C@@H](N)Cc1ccc(O)cc1)C(C)C)C(N)=O [tiNKF] (H-YNDLDYDSFVGLM-NH2)", "EC50", 0.51]
]}

Tell me EC50 reported for CC[C@H](C)[C@H](NC(=O)[C@H](Cc1ccccc1)NC(=O)[C@@H](NC(=O)[C@H](CC(=O)O)NC(=O)[C@H](CC(=O)O)NC(=O)[C@H](CCSC)NC(=O)[C@@H]1CCC(=O)N1)[C@@H](C)CC)C(=O)NCC(=O)N[C@@H](CC(C)C)C(=O)N[C@@H](CCSC)C(N)=O [tiNKB] ([pGlu]MDDIFIGLM-NH2)
3.38

---

- ASSAY_SYSTEM: UniProtKB F1R3V0
- Sequence (F1R3V0 1-395): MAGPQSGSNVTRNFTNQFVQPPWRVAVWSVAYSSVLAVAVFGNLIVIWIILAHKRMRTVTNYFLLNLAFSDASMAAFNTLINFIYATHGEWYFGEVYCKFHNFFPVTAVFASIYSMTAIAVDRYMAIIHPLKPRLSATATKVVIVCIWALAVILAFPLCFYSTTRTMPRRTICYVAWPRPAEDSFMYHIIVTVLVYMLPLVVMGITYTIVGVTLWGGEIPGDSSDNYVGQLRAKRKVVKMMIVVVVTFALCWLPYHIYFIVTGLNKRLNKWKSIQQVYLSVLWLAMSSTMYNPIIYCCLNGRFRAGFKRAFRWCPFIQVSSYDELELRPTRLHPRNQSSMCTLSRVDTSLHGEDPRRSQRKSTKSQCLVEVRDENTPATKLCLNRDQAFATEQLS
- METHOD_DESCRIPTION: CRE-/SRE-Luc receptor transactivation reporter assay in COS-7 cells, zebrafish Tac3rb
- Format: cell-based
- MEASUREMENT_CONTEXT: SRE-Luc reporter (PKC/Ca2+), mean ± SEM, read-out: EC50 zfTac3rb SRE
Starred links: 1 amine or outer side, 2 acyl side, 3 side chain; linkers in the order of their positions; H or OH if unused. Non-standard residues stand in square brackets, D forms with d. Residues, ends and D or L forms follow the SMILES beside them. Suc = O=C(CCC(=O)[*:2])[*:1]; NMeV = CN[C@H](C(=O)O)C(C)C
OBSERVABLE: EC50 (nM)
Provide only the numeric value, understood in nM.

Worked cases, EC50 given:
{"columns": ["COMPOUND", "EC50 [nM]"],
 "data": [
  ["CSCC[C@H](NC(=O)[C@H](CC(C)C)NC(=O)CNC(=O)[C@H](C(C)C)N(C)C(=O)[C@H](Cc1ccccc1)NC(=O)[C@H](CO)NC(=O)[C@H](CC(=O)O)NC(=O)CCC(=O)O)C(N)=O [NKF analog]", 25.7],
  ["CC[C@H](C)[C@H](NC(=O)[C@H](CC(=O)O)NC(=O)CCC(=O)O)C(=O)N[C@@H](Cc1ccccc1)C(=O)N(C)[C@H](C(=O)NCC(=O)N[C@@H](CC(C)C)C(=O)N[C@@H](CCSC)C(N)=O)C(C)C [zfNKBa analog] (Suc-DIF[NMeV]GLM-NH2)", 5.79],
  ["CC[C@H](C)[C@H](NC(=O)[C@H](CC(=O)O)NC(=O)[C@H](Cc1c[nH]cn1)NC(=O)[C@H](CCSC)NC(=O)[C@@H](N)CCC(=O)O)C(=O)N[C@@H](Cc1ccccc1)C(=O)N[C@H](C(=O)NCC(=O)N[C@@H](CC(C)C)C(=O)N[C@@H](CCSC)C(N)=O)C(C)C [zfNKBa] (H-EMHDIFVGLM-NH2)", 1.1]
]}

Tell me EC50 reported for CC[C@H](C)[C@H](NC(=O)[C@H](CC(=O)O)NC(=O)[C@H](CC(N)=O)NC(=O)[C@@H](N)Cc1ccc(O)cc1)C(=O)N[C@@H](CC(=O)O)C(=O)N[C@@H](Cc1ccc(O)cc1)C(=O)N[C@@H](CC(=O)O)C(=O)N[C@@H](CO)C(=O)N[C@@H](Cc1ccccc1)C(=O)N[C@H](C(=O)NCC(=O)N[C@@H](CC(C)C)C(=O)N[C@@H](CCSC)C(N)=O)C(C)C [zfNKF] (H-YNDIDYDSFVGLM-NH2)
25.5
